Cited source: ChEMBL document CHEMBL1201862

Please go through the items and note down their GI50.
- System: 786-0
- PROTOCOL SUMMARY: NCI tumour cell line growth inhibition, 48 h
The source made the active and inactive calls. Rule as the data show it: active = GI50 up to about 1.1 µM and inactive = higher.

Some compounds with recorded GI50:
>>> df
                                   compound  assay_endpoint            obs_value
0  CCOC(=O)Cc1csc2[n+]1C(=O)/C(=C/c1cccc(OC)c1O)S2            GI50   68.7 µM (inactive)
1          CCc1nc2c([nH]1)C(=O)c1ccccc1C2=O            GI50   61.4 µM (inactive)
2  O=C1C(NCCc2ccc(O)c([N+](=O)[O-])c2)=CC(=O)c2[nH]cnc21            GI50   47.2 µM (inactive)
3  Cc1ccc(NC=O)c(-c2c(N)[nH]c(=S)[nH]c2=O)c1            GI50  > 100 µM (inactive)
4        COc1cc(/C=C(\C#N)c2ccccc2)cc(OC)c1            GI50   31.8 µM (inactive)

Record GI50 for all entries; do not skip any.
1. Clc1cc(Cl)c2c(Cl)cc(Cl)c3c2c1N=S=N3
2. CC(C)=CCCC(C)[C@H]1CC(O)C2(C)C3=CCC4C(C)(C)[C@@H](O)CC[C@]4(C)C3=CC[C@]12C (stereo partly specified)
3. CC1=C[C@@H]2Cc3nc4cc(Cl)ccc4c(N)c3[C@H](C1)C2
4. COC(=O)c1nc2c3c(cccc3c1C(=O)OC)Nc1ccccc1-2
5. Clc1ccc2c(NCCCCN3OC3c3ccccc3)ccnc2c1 (stereo unspecified)
6. C[n+]1c2ccccc2c(NC(CCC(N)=O)C(=O)O)c2ccccc21 (stereo unspecified)

Result:
1: > 100 µM (inactive); 2: 1.55 µM (inactive); 3: 6.03 µM (inactive); 4: 27.5 µM (inactive); 5: 2.47 µM (inactive); 6: > 100 µM (inactive)

###

For each entry below, report its GI50 value.
- Test system: NCI-H522
- PROTOCOL SUMMARY: NCI tumour cell line growth inhibition, 48 h
Activity calls are given as the source filed them. No stated cut-off is given here; in the data, active = GI50 up to about 1.1 µM and inactive = higher.

>>> print(df.to_string())
                                   compound            obs_value
0  Cc1cc(=O)[nH]c2c1C(=O)c1c(C)cc(=O)n(C)c1C2=O    0.046 µM (active)
1           CN(C)/C=C/c1nnc([N+](=O)[O-])s1   1.66 µM (inactive)
2            Nc1nc(N)c(C2=CCNCC2)c(=O)[nH]1  > 100 µM (inactive)
3  COc1ccc(/C=N/n2cnc3c(c2=O)S/C(=C2/SC(=S)N(c4ccc(C)cc4)C2=O)N3c2ccccc2)cc1   52.4 µM (inactive)
4  C=C1C/C(=C/C)C(=O)O[C@@H]2CCN3CC=C(COC(=O)[C@]1(C)O)[C@H]23  > 100 µM (inactive)

State the recorded GI50 for every item in the following list.
1. CC1NC(=O)CC(c2ccccc2)N(N=O)C1c1ccccc1 (stereo not drawn)
2. OC(CCN1CCN(CCOC(c2ccccc2)c2ccccc2)CC1)c1ccccc1 (stereo not drawn)
3. CN(C)CC1CCCCCC(Br)C1=O (stereo not drawn)
4. C=C1c2nc3ccccc3n2C=C(c2ccc(Cl)cc2)N1c1ccc(OCCN2CCCCC2)cc1
5. CC1C(=O)O[B-]2(c3ccccc3)Oc3ccccc3C=[N+]12 (stereo not drawn)
6. CCc1cc2c(c3c1CCCC3)CC1(Cc3ccc(C(=O)OC)cc3C1)C2 (stereo not drawn)
7. O=C(Nc1ccc(Cl)cc1)c1cc(S(=O)(=O)Nc2nc3cccnc3[nH]2)c(SSc2cc(Cl)c(C(=O)Nc3ccc(Cl)cc3)cc2S(=O)(=O)Nc2nc3cccnc3[nH]2)cc1Cl
8. COc1cc(C[C@@]2(C)[C@@H]3CCC[C@H](CO)[C@@]3(C)CC[C@@H]2C)c(Cl)c(OC)c1

Result:
22.1 µM (inactive)
17.4 µM (inactive)
3.66 µM (inactive)
14.8 µM (inactive)
> 100 µM (inactive)
> 100 µM (inactive)
> 100 µM (inactive)
14.7 µM (inactive)
